# target-system: T1, EsCas13d, nuclease-dead (Eubacterium siraeum, UniProt B0MS50, R295A;H300A;R849A;H854A)
# T1 sequence: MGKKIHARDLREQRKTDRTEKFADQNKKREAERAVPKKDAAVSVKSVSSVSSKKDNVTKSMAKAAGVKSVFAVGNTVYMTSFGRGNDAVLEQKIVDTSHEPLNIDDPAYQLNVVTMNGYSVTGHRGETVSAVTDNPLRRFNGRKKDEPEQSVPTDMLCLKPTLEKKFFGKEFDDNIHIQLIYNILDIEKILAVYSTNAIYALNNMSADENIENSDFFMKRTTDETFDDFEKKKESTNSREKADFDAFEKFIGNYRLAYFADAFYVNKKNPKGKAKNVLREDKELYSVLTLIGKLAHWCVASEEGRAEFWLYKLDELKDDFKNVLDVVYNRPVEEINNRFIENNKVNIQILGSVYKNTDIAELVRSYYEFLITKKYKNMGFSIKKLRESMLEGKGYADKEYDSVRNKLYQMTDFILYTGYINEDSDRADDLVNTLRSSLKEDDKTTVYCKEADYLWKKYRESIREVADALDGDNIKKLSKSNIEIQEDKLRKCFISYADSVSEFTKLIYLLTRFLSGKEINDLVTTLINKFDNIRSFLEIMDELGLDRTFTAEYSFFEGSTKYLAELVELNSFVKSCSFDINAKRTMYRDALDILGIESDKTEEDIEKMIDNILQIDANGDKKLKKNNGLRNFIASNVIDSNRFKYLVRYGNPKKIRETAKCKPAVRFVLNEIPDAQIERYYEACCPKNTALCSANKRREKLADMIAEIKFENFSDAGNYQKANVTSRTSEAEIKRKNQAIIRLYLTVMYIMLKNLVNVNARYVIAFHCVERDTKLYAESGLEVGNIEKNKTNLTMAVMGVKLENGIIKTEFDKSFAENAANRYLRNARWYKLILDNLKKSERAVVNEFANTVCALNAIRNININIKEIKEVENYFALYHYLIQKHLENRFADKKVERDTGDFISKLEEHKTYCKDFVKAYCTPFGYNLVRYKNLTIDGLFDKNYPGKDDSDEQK
# assay-overview: crRNA (strand 1, pre-loaded); Mg2+; 40 mM Tris-HCl pH 7.5, 150 mM NaCl, 6 mM MgCl2, 1 mM DTT, 0.1% Tween-20, 0.2 mg/ml BSA; 25 C; 10 min per concentration, then washed
# run-conditions: tags: His6-TwinStrep-SUMO cleaved; N-terminal SNAP kept (SNAP-Surface 488); label: 3' end held by stalled T7 RNA polymerase
Known Kd of a selection of binders
All answers are understood in µM, so give the number only.

Example entries and their recorded answers appear below.
* target 1 U3A,C21U (mixed) RNA 1: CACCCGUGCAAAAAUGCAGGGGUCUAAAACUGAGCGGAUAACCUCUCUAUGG RNA 2: GGGAAUGGAUCCACAUCUACGAAUUCGUACUAUAGAGAGGUUAUCCGCACACCGAGAUCGGAAGAGCACACGU | 0.019
* target 2 MT 5'PFS GAG 3'PFS UCA (mixed) RNA 1: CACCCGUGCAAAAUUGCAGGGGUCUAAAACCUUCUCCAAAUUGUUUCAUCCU RNA 2: GGGAAUGGAUCCACAUCUACGAAUUCGAGAGGAUGAAACAAUUUGGAGAAGUCAAGAUCGGAAGAGCACACGU | 0.008
* target 3 insU 3' of 9,insG 3' of 8 (mixed) RNA 1: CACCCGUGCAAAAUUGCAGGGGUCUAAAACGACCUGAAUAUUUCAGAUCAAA RNA 2: GGGAAUGGAUCCACAUCUACGAAUUCGUUUUUGAUCUGAAAUAUUGUCAGGUCUGCAGAUCGGAAGAGCACACGU | 0.082
* target 1 insC 3' of 14,insC 3' of 14 (mixed) RNA 1: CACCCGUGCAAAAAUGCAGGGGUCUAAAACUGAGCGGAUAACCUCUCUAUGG RNA 2: GGGAAUGGAUCCACAUCUACGAAUUCGUACCAUAGAGACCGGUUAUCCGCUCACCGAGAUCGGAAGAGCACACGU | 0.042
* target 2 MT 5'PFS CUU 3'PFS UGA (mixed) RNA 1: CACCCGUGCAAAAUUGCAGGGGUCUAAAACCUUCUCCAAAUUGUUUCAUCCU RNA 2: GGGAAUGGAUCCACAUCUACGAAUUCCUUAGGAUGAAACAAUUUGGAGAAGUGAAGAUCGGAAGAGCACACGU | 0.0065

Query string: Please report the recorded Kd for target 1 insU 3' of 20,insG 3' of 16 (mixed) RNA 1: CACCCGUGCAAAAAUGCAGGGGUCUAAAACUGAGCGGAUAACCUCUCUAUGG RNA 2: GGGAAUGGAUCCACAUCUACGAAUUCGUACCAUUAGAGGAGGUUAUCCGCUCACCGAGAUCGGAAGAGCACACGU .
Result string: 0.036

Query string: Now consider target 1 A9C,U11A (mixed) RNA 1: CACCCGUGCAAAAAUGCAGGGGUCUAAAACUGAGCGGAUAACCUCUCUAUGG RNA 2: GGGAAUGGAUCCACAUCUACGAAUUCGUACCAUAGAGAGGAUCUCCGCUCACCGAGAUCGGAAGAGCACACGU .
Result string: 0.059
